Record form. Attribute: pIC50. Fill in for each entry.
- target-of-assay: HCMV polymerase (Human cytomegalovirus, UniProt P08546)
- Construct: made in house; host or cells: recombinant baculovirus-infected SF-9 cells
- Sequence (P08546 whole entry): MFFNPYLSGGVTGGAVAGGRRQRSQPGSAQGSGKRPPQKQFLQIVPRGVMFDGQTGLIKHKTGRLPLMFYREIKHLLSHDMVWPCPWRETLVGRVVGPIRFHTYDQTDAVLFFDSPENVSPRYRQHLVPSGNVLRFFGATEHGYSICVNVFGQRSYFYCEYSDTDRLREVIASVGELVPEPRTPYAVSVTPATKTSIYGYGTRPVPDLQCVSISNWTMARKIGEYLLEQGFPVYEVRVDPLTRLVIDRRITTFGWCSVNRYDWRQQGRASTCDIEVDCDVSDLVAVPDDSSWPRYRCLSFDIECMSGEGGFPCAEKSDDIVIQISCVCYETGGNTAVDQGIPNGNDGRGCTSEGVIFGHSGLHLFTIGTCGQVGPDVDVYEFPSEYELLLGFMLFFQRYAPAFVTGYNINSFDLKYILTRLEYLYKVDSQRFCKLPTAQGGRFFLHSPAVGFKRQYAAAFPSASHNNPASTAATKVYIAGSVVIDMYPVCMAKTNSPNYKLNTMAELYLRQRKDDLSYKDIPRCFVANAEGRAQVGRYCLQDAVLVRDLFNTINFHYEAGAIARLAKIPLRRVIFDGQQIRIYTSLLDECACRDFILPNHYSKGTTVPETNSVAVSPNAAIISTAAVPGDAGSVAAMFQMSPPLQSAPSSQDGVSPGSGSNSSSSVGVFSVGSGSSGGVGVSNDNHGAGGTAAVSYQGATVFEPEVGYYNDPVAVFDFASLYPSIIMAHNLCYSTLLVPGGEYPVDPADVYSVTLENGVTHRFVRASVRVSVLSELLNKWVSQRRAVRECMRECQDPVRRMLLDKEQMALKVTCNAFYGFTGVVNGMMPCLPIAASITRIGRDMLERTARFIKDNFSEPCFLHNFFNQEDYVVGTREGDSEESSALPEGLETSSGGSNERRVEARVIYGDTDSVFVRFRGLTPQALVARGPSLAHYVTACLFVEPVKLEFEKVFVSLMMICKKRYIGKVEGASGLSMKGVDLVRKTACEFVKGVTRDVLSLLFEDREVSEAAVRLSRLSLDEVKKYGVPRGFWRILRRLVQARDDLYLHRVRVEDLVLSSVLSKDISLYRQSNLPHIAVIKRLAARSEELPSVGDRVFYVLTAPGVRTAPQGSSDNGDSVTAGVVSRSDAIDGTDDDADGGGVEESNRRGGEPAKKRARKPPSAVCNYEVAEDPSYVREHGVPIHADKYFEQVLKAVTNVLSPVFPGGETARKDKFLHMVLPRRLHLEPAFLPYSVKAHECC
- experimental-details: HCMV polymerase scintillation proximity assay (SPA), modified version
- Type: biochemical
- study-conditions: CMV polymerase; Table 1; modified assay with 4.5 mM DTT, compounds in 100% DMSO; read-out: Antiviral Selective Polymerase IC50 Values, CMV
- Description: The HCMV polymerase assay is performed using a scintillation proximity assay (SPA) as described in several references, such as N. D. Cook, et al., Pharmaceutical Manufacturing International, pages 49-53 (1992); K. Takeuchi, Laboratory Practice, September issue (1992); U.S. Pat. No. 4,568,649 (1986); which are incorporated by reference herein. Reactions are performed in 96-well plates. […] Plates are incubated 10 min. at 37° C., then equilibrated to room temperature, and counted on a Packard Topcount. […]
Answers are plain numbers, as −log10 of the molar value.

Example compounds with recorded pIC50:
1) NS(=O)(=O)c1ccc(CNS(=O)(=O)c2cc(F)c3ncc(C(=O)NCc4ccc(Cl)cc4)c(O)c3c2)cc1	5.12
2) N#CCCCCCc1cc(F)c2ncc(C(=O)NCc3ccc(Cl)cc3)c(O)c2c1	4.98
3) O=C(NCc1ccc(Cl)cc1)c1cnc2c(Cl)cccc2c1O	5.55
4) O=C(NCc1ccc(Cl)cc1)c1cnc2c(F)cc(S(=O)(=O)Nc3ccccn3)cc2c1O	4.41
5) O=C(NCc1ccc(Cl)cc1)c1cnc2c(F)cc(S(=O)(=O)NCC(c3ccccc3)c3ccccc3)cc2c1O	5.07
6) O=C(NCc1ccc(Cl)cc1)c1cnc2c(F)cc(O)cc2c1O	4.62

Quick request: pIC50 for each listed item, please.
1. CN(CCS(=O)(=O)O)C(=O)CCCCCCC(=O)OCCCc1cc(F)c2ncc(C(=O)NCc3ccc(Cl)cc3)c(O)c2c1
2. CC(=O)NCCNS(=O)(=O)c1cc(F)c2ncc(C(=O)NCc3ccc(Cl)cc3)c(O)c2c1
3. O=C(NCc1ccc(Cl)cc1)c1cnc2c(F)cc([S+]([O-])CCO)cc2c1O (stereo not drawn)

[4.94, 4.57, 5.14]
